# GI50 values compiled below
system: SK-MEL-5 melanoma; assay: NCI tumour cell line growth inhibition, 48 h

>  <compound>
O=C(Nc1nc2ccc(S(=O)(=O)Nc3ccc(C4(C(F)(F)F)CC4)cc3)cc2[nH]1)c1cnccn1

>  <valueReported>
0.693 µM

$$$$
>  <compound>
S=C(Sc1ccc(Cl)cc1)Sc1ccc(Cl)cc1

>  <valueReported>
1.68 µM

$$$$
>  <compound>
O=C(Nc1ccc(-n2cc(-c3ccncc3)c(-c3ccc(O)c(Cl)c3)n2)cc1)Nc1cc(C(F)(F)F)cc(C(F)(F)F)c1

>  <valueReported>
4.08 µM

$$$$

// query Lookup: GI50 / SK-MEL-5 melanoma / "C#COc1cccc(Nc2ncnc3cc(NC(=O)[C@@H](C)Cl)ccc23)c1"
// result 4.09 µM

// query Lookup: GI50 / SK-MEL-5 melanoma / "COC(=O)c1ccc(NC(N)=NCCC(C)(C)c2ccc(C(F)(F)F)cc2)nc1"
// result 1.56 µM

// query Lookup: GI50 / SK-MEL-5 melanoma / C/C(=C/CCC(C)[C@@H]1CC[C@]2(C)C3=C(CC[C@@]12C)[C@@]1(C)CCC(=O)C(C)(C)[C@@H]1CC3)C(=O)O (stereo partly specified)
// result 1.07 µM

* * *

tested on: NCI-H226 lung; experiment: NCI tumour cell line growth inhibition, 48 h
# TGI values compiled below

// query Looking for the measured TGI of "O=C(N/N=C/c1ccccc1)c1c(F)c(F)c(F)c(F)c1F" , can you help?
// result > 100 µM

// query Looking for the measured TGI of O=C(O)C1CCC(=O)N1C(=O)COc1cc(Cl)c(Cl)cc1Cl (centres undefined) , can you help?
// result > 100 µM

// query Looking for the measured TGI of "N#Cc1c(-c2ccccc2)c(-c2ccccc2)cc2c(=O)c3ccc(Cl)cc3[nH]c12" , can you help?
// result > 100 µM

// query Looking for the measured TGI of "CS(=O)(=O)OCCN1CCN(C(=O)c2ccc(Cl)c3c(Nc4ccc(S(=O)(=O)N=C(N)N)cc4)c4ccccc4nc23)CC1" , can you help?
// result > 100 µM

// query Looking for the measured TGI of O=C(Nc1nc(=S)[nH][nH]1)C(=O)C(c1cnc2ccc([N+](=O)[O-])cc2n1)[N+](=O)[O-] (centres undefined) , can you help?
// result > 100 µM

// query Looking for the measured TGI of "O=C1c2ccccc2-c2c1c1ccccc1c(=O)n2CCCNCCNCCCn1c2c(c3ccccc3c1=O)C(=O)c1ccccc1-2" , can you help?
// result 1.98 µM

// query Looking for the measured TGI of CCC12CCC[C@@]13C=C[C@H](O3)C(C)(C)C2=O (some centres undefined) , can you help?
// result > 100 µM

// query Looking for the measured TGI of "Nc1c(C(=O)O)c2ccc([N+](=O)[O-])cc2c(=O)n1-c1nc2ccccc2s1" , can you help?
// result > 100 µM

// query Looking for the measured TGI of "O=C(Nc1nc2ccc(S(=O)(=O)Nc3ccc(C4(C(F)(F)F)CC4)cc3)cc2[nH]1)c1cnccn1" , can you help?
// result 9.51 µM

* * *

tested on: A549 NSCLC; assay: NCI tumour cell line growth inhibition, 48 h; in the data active = GI50 below about 0.43 µM; inactive = the rest
The reply should name one outcome from active, inactive

>  <compoundStructureString>
CN(C)CCNC(=O)Nc1ccc(N(C)c2ccnc(Nc3ccc(CS(C)(=O)=O)cc3)n2)cc1

>  <tgt>
A549 NSCLC

>  <classLabel>
inactive

$$$$
>  <compoundStructureString>
NC(=O)c1nc(-c2c(F)cccc2Cl)oc1Nc1ccc(C(=O)N2CCOCC2)cc1

>  <tgt>
A549 NSCLC

>  <classLabel>
inactive

$$$$

// query What outcome does the record of this test show for "Nc1c(C(=O)Nc2ccccc2)sc2nc3c(cc12)C(=O)CCC3" ?
// result inactive

// query What outcome does the record of this test show for "O=C(O)c1ccccc1NCn1nc(-c2ccccc2O)oc1=S" ?
// result inactive

// query What outcome does the record of this test show for "C/C(=N\NC(=S)N1CCC1)c1ccccn1" ?
// result active

// query What outcome does the record of this test show for "CCOC(=O)c1cn(C)c2c(OC)c3ccccc3c(OC)c2c1=O" ?
// result inactive

// query What outcome does the record of this test show for "O=C(CCCCN1CCN(CCCCC(=O)Nc2ccccc2C#C/C=C\C#Cc2ccccc2C(F)(F)F)CC1)Nc1ccccc1C#C/C=C\C#Cc1ccccc1C(F)(F)F" ?
// result inactive

// query What outcome does the record of this test show for "O=C(Nc1nc2ccc(S(=O)(=O)Nc3ccc(C4(C(F)(F)F)CC4)cc3)cc2[nH]1)c1cnccn1" ?
// result inactive

// query What outcome does the record of this test show for "Cc1ccc(C(=O)Nc2ccc(Oc3cc4cnn(C)c4cc3-c3cn[nH]c3)c(F)c2)c(=O)n1-c1ccc(F)cc1" ?
// result inactive
